- experimental_target: panel of 442 kinases (Homo sapiens, UniProt Q8N4C8)
- Construct: purchased KINOMEscan
- Sequence (Q8N4C8 whole entry): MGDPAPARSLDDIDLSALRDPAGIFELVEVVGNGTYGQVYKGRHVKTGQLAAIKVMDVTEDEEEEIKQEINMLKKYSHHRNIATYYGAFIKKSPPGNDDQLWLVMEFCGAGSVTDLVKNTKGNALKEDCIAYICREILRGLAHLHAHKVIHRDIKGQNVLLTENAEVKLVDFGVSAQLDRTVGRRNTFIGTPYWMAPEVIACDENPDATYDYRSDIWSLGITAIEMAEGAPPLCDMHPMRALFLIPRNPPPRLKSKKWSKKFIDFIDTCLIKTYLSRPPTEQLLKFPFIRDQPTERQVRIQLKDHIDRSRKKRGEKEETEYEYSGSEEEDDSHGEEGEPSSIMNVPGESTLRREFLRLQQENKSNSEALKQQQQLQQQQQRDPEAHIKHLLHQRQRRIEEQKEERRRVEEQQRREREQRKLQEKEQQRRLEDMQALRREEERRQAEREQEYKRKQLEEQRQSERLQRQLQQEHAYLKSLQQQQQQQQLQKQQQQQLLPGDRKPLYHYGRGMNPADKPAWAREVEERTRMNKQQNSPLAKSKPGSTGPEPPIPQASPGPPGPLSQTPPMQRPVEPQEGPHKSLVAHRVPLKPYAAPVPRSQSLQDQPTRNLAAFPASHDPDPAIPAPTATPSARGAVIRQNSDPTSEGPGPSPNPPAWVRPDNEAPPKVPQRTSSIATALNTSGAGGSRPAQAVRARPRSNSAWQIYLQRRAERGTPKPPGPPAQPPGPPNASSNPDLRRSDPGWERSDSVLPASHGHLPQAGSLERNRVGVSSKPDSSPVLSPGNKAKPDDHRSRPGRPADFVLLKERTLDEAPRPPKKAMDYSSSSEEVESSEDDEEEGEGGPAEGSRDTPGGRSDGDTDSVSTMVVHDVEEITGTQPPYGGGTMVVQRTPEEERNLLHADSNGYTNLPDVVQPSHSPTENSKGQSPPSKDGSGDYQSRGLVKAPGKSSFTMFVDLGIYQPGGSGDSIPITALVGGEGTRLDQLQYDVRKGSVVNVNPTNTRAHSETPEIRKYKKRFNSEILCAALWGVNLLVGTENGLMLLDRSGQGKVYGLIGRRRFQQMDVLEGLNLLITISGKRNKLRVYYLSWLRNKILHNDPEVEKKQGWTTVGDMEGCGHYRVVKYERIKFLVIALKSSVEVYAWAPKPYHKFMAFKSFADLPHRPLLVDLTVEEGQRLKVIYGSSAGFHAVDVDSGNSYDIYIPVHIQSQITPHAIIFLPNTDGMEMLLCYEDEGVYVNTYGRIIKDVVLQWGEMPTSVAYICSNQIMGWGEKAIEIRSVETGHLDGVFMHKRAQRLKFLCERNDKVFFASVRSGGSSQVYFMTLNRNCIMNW
- Type: binding
- condition_set: Compound Concentration 10 µM
attribute_measured: KINOMEscan: MINK
Answer as a number with no unit attached.

Example entries and their recorded answers appear below.
COc1cc(C(=O)N2CCC(N3CCN(C)CC3)CC2)ccc1Nc1ncc2c(n1)N1CCc3cccc(c31)C(=O)N2C
36
CCOc1cc(C(=O)N2CCC(N3CCN(C)CC3)CC2)ccc1Nc1ncc2c(n1)N(C1CCCC1)c1ccccc1C(=O)N2C
100
COc1cc(C(=O)N2CCC(N3CCN(C)CC3)CC2)ccc1Nc1ncc2c(n1)N(C)c1ccccc1C(=O)N2C
77

# ---- query compound ----
Lookup: Form entry - test system: panel of 442 kinases (Homo sapiens, UniProt Q8N4C8); read-out: KINOMEscan: MINK; compound: COc1cc(C(=O)N2CCC(N3CCN(C)CC3)CC2)ccc1Nc1ncc2c(n1)N(C1CCCC1)c1ccccc1C(=O)N2C
Found: 100

---

- experimental_target: panel of 442 kinases (Homo sapiens)
- Construct: purchased KINOMEscan
- Assay type: binding
- condition_set: Compound Concentration 10 µM
attribute_measured: KINOMEscan: CSK
Answer as a number with no unit attached.

Example entries and their recorded answers appear below.
COc1cc(C(=O)N2CCC(N3CCN(C)CC3)CC2)ccc1Nc1ncc2c(n1)N1CCc3cccc(c31)C(=O)N2C [Compound 24]
75
COc1cc(C(=O)N2CCC(N3CCN(C)CC3)CC2)ccc1Nc1ncc2c(n1)N(C1CCCC1)c1ccccc1C(=O)N2C [Compound 25]
74
COc1cc(C(=O)N2CCC(N3CCN(C)CC3)CC2)ccc1Nc1ncc2c(n1)N(C)c1ccccc1C(=O)N2C [15 (LRRK2-IN-1)]
90

Lookup: Form entry - test system: panel of 442 kinases (Homo sapiens); read-out: KINOMEscan: CSK; compound: CCOc1cc(C(=O)N2CCC(N3CCN(C)CC3)CC2)ccc1Nc1ncc2c(n1)N(C1CCCC1)c1ccccc1C(=O)N2C [Compound 26]
Found: 100

---

- experimental_target: panel of 442 kinases (Homo sapiens)
- Construct: purchased KINOMEscan
- Type: binding
- condition_set: Compound Concentration 10 µM
attribute_measured: KINOMEscan: PRKX
Answer as a number with no unit attached.

Example entries and their recorded answers appear below.
COc1cc(C(=O)N2CCC(N3CCN(C)CC3)CC2)ccc1Nc1ncc2c(n1)N(C)c1ccccc1C(=O)N2C
99
CCOc1cc(C(=O)N2CCC(N3CCN(C)CC3)CC2)ccc1Nc1ncc2c(n1)N(C1CCCC1)c1ccccc1C(=O)N2C
100

Lookup: If you can, please state the reported KINOMEscan: PRKX value of COc1cc(C(=O)N2CCC(N3CCN(C)CC3)CC2)ccc1Nc1ncc2c(n1)N(C1CCCC1)c1ccccc1C(=O)N2C .
Found: 100

Lookup: If you can, please state the reported KINOMEscan: PRKX value of COc1cc(C(=O)N2CCC(N3CCN(C)CC3)CC2)ccc1Nc1ncc2c(n1)N1CCc3cccc(c31)C(=O)N2C .
Found: 87

---

- experimental_target: panel of 442 kinases (Homo sapiens)
- Construct: purchased KINOMEscan
- Assay type: binding
- condition_set: Compound Concentration 10 µM
attribute_measured: KINOMEscan: FGR
Answer as a number with no unit attached.

Example entries and their recorded answers appear below.
COc1cc(C(=O)N2CCC(N3CCN(C)CC3)CC2)ccc1Nc1ncc2c(n1)N(C1CCCC1)c1ccccc1C(=O)N2C
98
COc1cc(C(=O)N2CCC(N3CCN(C)CC3)CC2)ccc1Nc1ncc2c(n1)N(C)c1ccccc1C(=O)N2C
84
CCOc1cc(C(=O)N2CCC(N3CCN(C)CC3)CC2)ccc1Nc1ncc2c(n1)N(C1CCCC1)c1ccccc1C(=O)N2C
99

# ---- query compound ----
Lookup: If you can, please state the reported KINOMEscan: FGR value of COc1cc(C(=O)N2CCC(N3CCN(C)CC3)CC2)ccc1Nc1ncc2c(n1)N1CCc3cccc(c31)C(=O)N2C .
Found: 79

---

- experimental_target: panel of 442 kinases (Homo sapiens, UniProt Q9H0K1)
- Construct: purchased KINOMEscan
- Sequence (Q9H0K1 whole entry): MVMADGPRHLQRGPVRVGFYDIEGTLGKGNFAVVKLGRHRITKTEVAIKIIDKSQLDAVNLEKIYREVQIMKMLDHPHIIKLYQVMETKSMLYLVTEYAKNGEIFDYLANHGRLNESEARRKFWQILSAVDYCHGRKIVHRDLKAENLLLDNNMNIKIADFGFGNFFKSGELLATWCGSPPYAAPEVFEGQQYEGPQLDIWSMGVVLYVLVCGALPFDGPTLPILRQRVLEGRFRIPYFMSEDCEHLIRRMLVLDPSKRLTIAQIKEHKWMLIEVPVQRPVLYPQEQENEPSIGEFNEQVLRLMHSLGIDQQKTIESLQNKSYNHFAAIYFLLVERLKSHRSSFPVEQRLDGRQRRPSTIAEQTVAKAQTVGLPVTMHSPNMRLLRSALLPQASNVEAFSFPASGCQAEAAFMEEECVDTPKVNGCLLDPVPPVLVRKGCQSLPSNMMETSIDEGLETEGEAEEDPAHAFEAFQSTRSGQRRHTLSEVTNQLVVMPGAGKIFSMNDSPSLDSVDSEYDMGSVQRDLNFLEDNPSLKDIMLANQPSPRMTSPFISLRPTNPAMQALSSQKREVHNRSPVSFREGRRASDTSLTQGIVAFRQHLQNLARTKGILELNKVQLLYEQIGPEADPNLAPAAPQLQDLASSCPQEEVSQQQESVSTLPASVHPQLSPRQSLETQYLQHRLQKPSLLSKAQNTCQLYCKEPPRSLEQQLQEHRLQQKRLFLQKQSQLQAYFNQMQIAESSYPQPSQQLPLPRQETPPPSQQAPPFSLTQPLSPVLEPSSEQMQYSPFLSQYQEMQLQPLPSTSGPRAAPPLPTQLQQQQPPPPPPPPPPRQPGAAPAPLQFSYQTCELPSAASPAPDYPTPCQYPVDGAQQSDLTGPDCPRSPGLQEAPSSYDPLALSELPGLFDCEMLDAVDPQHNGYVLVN
- Format: binding
- condition_set: kinase SIK2; compound concentration 10 µM
attribute_measured: % Ctrl, SIK2 (% Ctrl)
# value in % Ctrl; strip the unit string

Example entries and their recorded answers appear below.
COc1cc(C(=O)N2CCC(N3CCN(C)CC3)CC2)ccc1Nc1ncc2c(n1)N(C)c1ccccc1C(=O)N2C
98
COc1cc(C(=O)N2CCC(N3CCN(C)CC3)CC2)ccc1Nc1ncc2c(n1)N(C1CCCC1)c1ccccc1C(=O)N2C
95
CCOc1cc(C(=O)N2CCC(N3CCN(C)CC3)CC2)ccc1Nc1ncc2c(n1)N(C1CCCC1)c1ccccc1C(=O)N2C
100

# ---- query molecule ----
Lookup: If you can, please state the reported % Ctrl, SIK2 value of COc1cc(C(=O)N2CCC(N3CCN(C)CC3)CC2)ccc1Nc1ncc2c(n1)N1CCc3cccc(c31)C(=O)N2C .
Found: 81

---

- experimental_target: panel of 442 kinases (Homo sapiens, UniProt Q9H2K8)
- Construct: purchased KINOMEscan
- Sequence (Q9H2K8 whole entry): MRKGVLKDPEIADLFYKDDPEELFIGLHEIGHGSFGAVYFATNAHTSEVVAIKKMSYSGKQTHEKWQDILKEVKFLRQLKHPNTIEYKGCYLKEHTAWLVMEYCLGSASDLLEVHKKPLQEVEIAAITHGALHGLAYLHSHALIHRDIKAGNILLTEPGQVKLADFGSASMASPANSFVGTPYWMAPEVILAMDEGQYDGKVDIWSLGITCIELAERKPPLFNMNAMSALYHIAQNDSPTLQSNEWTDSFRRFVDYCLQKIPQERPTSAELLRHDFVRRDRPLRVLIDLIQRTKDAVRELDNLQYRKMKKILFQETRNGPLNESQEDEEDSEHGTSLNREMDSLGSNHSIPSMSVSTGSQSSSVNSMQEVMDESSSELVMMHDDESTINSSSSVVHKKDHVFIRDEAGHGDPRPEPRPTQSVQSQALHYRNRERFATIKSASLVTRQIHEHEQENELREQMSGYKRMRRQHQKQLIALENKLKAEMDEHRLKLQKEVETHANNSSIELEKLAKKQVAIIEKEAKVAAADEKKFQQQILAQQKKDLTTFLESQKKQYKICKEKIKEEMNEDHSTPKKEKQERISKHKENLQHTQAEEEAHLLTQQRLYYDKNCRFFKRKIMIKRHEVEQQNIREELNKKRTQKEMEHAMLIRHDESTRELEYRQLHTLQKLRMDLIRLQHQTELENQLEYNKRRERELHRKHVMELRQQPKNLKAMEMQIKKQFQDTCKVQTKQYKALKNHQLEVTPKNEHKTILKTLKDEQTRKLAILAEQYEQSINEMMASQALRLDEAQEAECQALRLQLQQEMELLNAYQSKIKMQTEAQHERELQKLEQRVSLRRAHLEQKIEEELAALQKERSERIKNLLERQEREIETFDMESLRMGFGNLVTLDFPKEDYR
- Type: binding
- condition_set: kinase TAOK3; compound concentration 10 µM
attribute_measured: % Ctrl, TAOK3 (% Ctrl)
# value in % Ctrl; strip the unit string

Example entries and their recorded answers appear below.
COc1cc(C(=O)N2CCC(N3CCN(C)CC3)CC2)ccc1Nc1ncc2c(n1)N(C)c1ccccc1C(=O)N2C
24
CCOc1cc(C(=O)N2CCC(N3CCN(C)CC3)CC2)ccc1Nc1ncc2c(n1)N(C1CCCC1)c1ccccc1C(=O)N2C
82
COc1cc(C(=O)N2CCC(N3CCN(C)CC3)CC2)ccc1Nc1ncc2c(n1)N(C1CCCC1)c1ccccc1C(=O)N2C
100

Lookup: Form entry - test system: panel of 442 kinases (Homo sapiens, UniProt Q9H2K8); read-out: % Ctrl, TAOK3; compound: COc1cc(C(=O)N2CCC(N3CCN(C)CC3)CC2)ccc1Nc1ncc2c(n1)N1CCc3cccc(c31)C(=O)N2C
Found: 100

---

Below, each entry is listed alongside its reported KINOMEscan: PRKCE.
- experimental_target: panel of 442 kinases (Homo sapiens, UniProt Q02156)
- Construct: purchased KINOMEscan
- Sequence (Q02156 whole entry): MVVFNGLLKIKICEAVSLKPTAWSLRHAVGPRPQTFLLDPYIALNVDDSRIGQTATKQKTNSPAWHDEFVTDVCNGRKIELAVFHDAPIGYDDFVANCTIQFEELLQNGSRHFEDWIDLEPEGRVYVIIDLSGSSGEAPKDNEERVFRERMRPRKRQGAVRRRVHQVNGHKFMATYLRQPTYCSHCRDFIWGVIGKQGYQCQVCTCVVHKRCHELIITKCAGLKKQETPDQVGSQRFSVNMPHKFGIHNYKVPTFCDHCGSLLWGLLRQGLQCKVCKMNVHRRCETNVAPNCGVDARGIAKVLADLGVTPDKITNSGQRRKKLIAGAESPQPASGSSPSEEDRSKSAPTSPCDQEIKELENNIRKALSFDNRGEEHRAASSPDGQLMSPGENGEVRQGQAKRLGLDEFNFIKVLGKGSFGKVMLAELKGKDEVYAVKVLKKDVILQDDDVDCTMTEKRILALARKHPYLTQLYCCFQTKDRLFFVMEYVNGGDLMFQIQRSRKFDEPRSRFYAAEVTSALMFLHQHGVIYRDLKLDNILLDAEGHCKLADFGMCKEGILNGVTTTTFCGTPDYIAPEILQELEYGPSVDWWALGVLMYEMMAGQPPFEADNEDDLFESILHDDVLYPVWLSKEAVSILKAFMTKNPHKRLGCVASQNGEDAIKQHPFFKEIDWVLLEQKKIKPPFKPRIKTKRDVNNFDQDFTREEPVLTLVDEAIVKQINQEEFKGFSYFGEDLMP
- Type: binding
- condition_set: Compound Concentration 10 µM
- Description: We assessed the selectivity of members of this scaffold using the KINOMEscan methodology across a near comprehensive panel of 442 kinases [[18,27]].
Answer as a number with no unit attached.

COc1cc(C(=O)N2CCC(N3CCN(C)CC3)CC2)ccc1Nc1ncc2c(n1)N(C)c1ccccc1C(=O)N2C
100
COc1cc(C(=O)N2CCC(N3CCN(C)CC3)CC2)ccc1Nc1ncc2c(n1)N(C1CCCC1)c1ccccc1C(=O)N2C
79
CCOc1cc(C(=O)N2CCC(N3CCN(C)CC3)CC2)ccc1Nc1ncc2c(n1)N(C1CCCC1)c1ccccc1C(=O)N2C
98

# ---- query compound ----
Lookup: If you can, please state the reported KINOMEscan: PRKCE value of COc1cc(C(=O)N2CCC(N3CCN(C)CC3)CC2)ccc1Nc1ncc2c(n1)N1CCc3cccc(c31)C(=O)N2C .
Found: 72

---

- experimental_target: ERK5 (Homo sapiens)
- Sequence (Q13164 whole entry): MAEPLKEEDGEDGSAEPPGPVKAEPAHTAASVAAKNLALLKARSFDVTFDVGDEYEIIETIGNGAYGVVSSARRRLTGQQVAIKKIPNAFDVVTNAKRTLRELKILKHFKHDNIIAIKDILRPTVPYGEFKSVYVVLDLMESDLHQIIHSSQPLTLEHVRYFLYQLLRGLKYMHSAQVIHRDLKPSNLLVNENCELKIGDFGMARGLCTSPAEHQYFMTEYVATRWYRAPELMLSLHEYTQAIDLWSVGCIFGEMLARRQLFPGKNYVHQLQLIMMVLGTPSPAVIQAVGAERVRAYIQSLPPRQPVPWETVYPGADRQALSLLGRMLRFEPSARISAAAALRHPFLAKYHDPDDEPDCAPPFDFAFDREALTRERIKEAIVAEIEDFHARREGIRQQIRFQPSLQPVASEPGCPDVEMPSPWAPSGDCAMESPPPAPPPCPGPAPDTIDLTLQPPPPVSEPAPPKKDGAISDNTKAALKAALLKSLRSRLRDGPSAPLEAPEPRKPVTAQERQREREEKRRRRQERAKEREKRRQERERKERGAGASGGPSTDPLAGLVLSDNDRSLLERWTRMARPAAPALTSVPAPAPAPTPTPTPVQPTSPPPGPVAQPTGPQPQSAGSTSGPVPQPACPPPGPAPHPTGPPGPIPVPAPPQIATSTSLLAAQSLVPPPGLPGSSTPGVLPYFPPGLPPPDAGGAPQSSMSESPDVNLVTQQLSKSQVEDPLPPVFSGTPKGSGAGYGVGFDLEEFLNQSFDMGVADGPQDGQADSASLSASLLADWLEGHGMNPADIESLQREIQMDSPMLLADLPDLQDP
- test_method_notes: ERK5 autophosphorylation assay (EGF-stimulated, mobility shift immunoblot)
- condition_set: inhibition of EGF-stimulated autophosphorylation of ERK5 in HeLa cells; read-out: Cellular EC50 (ERK5)
Below, each entry is listed alongside its reported EC50.
# value in µM; strip the unit string

Example entries and their recorded answers appear below.
CN1C(=O)c2ccccc2N(C)c2nc(NCCc3cnc[nH]3)ncc21
4.68
COc1cc(C(=O)N2CCC(N3CCN(C)CC3)CC2)ccc1Nc1ncc2c(n1)N1CCc3cccc(c31)C(=O)N2C
0.26

# ---- query compound ----
Lookup: If you can, please state the reported EC50 value of COc1cc(N2CCN(C)CC2)ccc1Nc1ncc2c(n1)N(C)c1ccc(Cl)cc1C(=O)N2C .
Found: 11.4

---

- experimental_target: panel of 442 kinases (Homo sapiens)
- Construct: purchased KINOMEscan
- Assay type: binding
- condition_set: Compound Concentration 10 µM
attribute_measured: KINOMEscan: FRK

Example entries and their recorded answers appear below.
COc1cc(C(=O)N2CCC(N3CCN(C)CC3)CC2)ccc1Nc1ncc2c(n1)N(C)c1ccccc1C(=O)N2C [15 (LRRK2-IN-1)]
34
COc1cc(C(=O)N2CCC(N3CCN(C)CC3)CC2)ccc1Nc1ncc2c(n1)N1CCc3cccc(c31)C(=O)N2C [Compound 24]
56
COc1cc(C(=O)N2CCC(N3CCN(C)CC3)CC2)ccc1Nc1ncc2c(n1)N(C1CCCC1)c1ccccc1C(=O)N2C [Compound 25]
24

# ---- query molecule ----
Lookup: If you can, please state the reported KINOMEscan: FRK value of CCOc1cc(C(=O)N2CCC(N3CCN(C)CC3)CC2)ccc1Nc1ncc2c(n1)N(C1CCCC1)c1ccccc1C(=O)N2C [Compound 26] .
Found: 87
